Measured values drawn from PubChem BioAssay (NCI) for this set.

assay: NCI Yeast Anticancer Drug Screen. Data for the rad50 strain (AID 155);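 also: 0% = growth of vehicle-only cultures of the same strain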; conditions: S. cerevisiae rad50 strain growth inhibition; at 50.0 µM; active compounds read high
The panel holds about 79,000 compounds, 15% with a hit somewhere; the sample as a whole holds those more often.
value-type: growth inhibition (%)
Please state the figure in %; there is no need to write the unit.

Worked examples follow.
*Q* Could you tell me which growth inhibition is on file for Cc1cc2c(cc1C)NC1=C(N2)OC(c2cccc(O)c2)C1=O (stereo unspecified) ?
*A* 1.9

*Q* Consider the molecule shown here: O=[N+]([O-])c1ccc(N/N=C/c2ccc(CO)cc2)c([N+](=O)[O-])c1 What is its recorded growth inhibition?
*A* 4

*Q* Which growth inhibition value is on record for N#CCSc1c(-c2ccccc2)c(=O)n(-c2ccccc2)c(=S)n1-c1ccccc1 ?
*A* 20.7

*Q* May I ask what growth inhibition has been recorded for COc1ccc(-c2cc(-c3ccccc3)[nH]c(=S)c2C#N)cc1 ?
*A* -23.8

*Q* Quick one: growth inhibition of CC(C)C(NC(=O)C1CSC(C)(C)N1C=O)C(N)=O (stereo unspecified) ?
*A* -5.2

Next:
*Q* Given C[s+]1c2ccccc2c2ccccc21 , state its recorded growth inhibition.
*A* -65.8

* * *

experiment: NCI Yeast Anticancer Drug Screen. Data for the mlh1 rad18 strain (AID 175); details: S. cerevisiae mlh1 rad18 strain growth inhibition; at 50.0 µM; active compounds read high
The panel holds about 79,000 compounds, 15% with a hit somewhere; the sample as a whole holds those more often.
value-type: growth inhibition (%)
Express it in %; write the number only.

*Q* What value of measured growth inhibition is listed for C=C1CC[C@@H]2C(C)(C)CCC[C@@]2(C)[C@@H]1Cc1cc(O)ccc1O ?
*A* 87.5

*Q* Consider the compound shown here: O=C1CSC2=NC3=C(CSC/C3=C\c3ccccc3)C(c3ccccc3)N12 (stereo unspecified) What is its recorded growth inhibition?
*A* -25.6

*Q* Given the compound CCOC(=O)C1SC(=S)N(c2ccccc2)C1N (stereo unspecified) , what is its reported growth inhibition?
*A* 11.8

*Q* What does the data say about its growth inhibition? Entry: COC(=O)C1(C(=O)OC)CC(=O)c2c(OC(=O)c3cccc(OC)c3C#N)ccc(OC(=O)c3cccc(OC)c3C#N)c2C1
*A* 16.9

*Q* For C=C(C)c1nn(-c2ccccc2)c2c1C(=O)CC(C)O2 (stereo unspecified) , what is its reported growth inhibition?
*A* 8.5

* * *

assay: NCI Yeast Anticancer Drug Screen. Data for the cln2 rad14 strain (AID 165);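 also: 0% = growth equal to vehicle treated cultures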; conditions: S. cerevisiae cln2 rad14 strain, at 50.0 µM, active compounds read high
This is part of a sample that, as a whole, favours compounds with a hit. Of some 79,000 tested, about 15% had one in any assay.
Quick reference: growth inhibition of the listed items.
State the answer as a number, implicitly in %.

*Q* # get_value(readout='growth inhibition', item= Cc1cc(C)c(COCc2c(C)cc(C)cc2C)c(C)c1 )
*A* -34.1

*Q* Can you look up the measured growth inhibition of O=c1cc(-c2ccccc2F)[nH]c2ccc(N3CCCC3)cc12 for me?
*A* 0.65

*Q* Which growth inhibition value belongs to COc1ccc(/C=C2\N=C(c3ccccc3)OC2=O)c(Br)c1OC(C)=O ?
*A* -12.3

*Q* Sample Nc1n[nH]c(CO)n1 — what was its growth inhibition?
*A* 9.65

*Q* Request the reported growth inhibition associated with CC1(C)OC2COC3OC(C)(C)OC3(CO)C2O1 (stereo unspecified)
*A* -4.9

Consider the record given below.
*Q* What value of growth inhibition has been reported for the following molecule? COc1ccc(OC)c2cc3c(cc12)C(=O)C(C)=C(C)C3=O
*A* -30

* * *

Assay: NCI Yeast Anticancer Drug Screen. Data for the sgs1 mgt1 strain (AID 161);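 also: 0% = growth of cultures given vehicle only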
Settings: S. cerevisiae sgs1 mgt1 strain, at 50.0 µM
Experimental: Growth inhibition of yeast strains with defined genetic alterations is measured as a screen for potential anti-cancer activity. Selected strains with alterations in DNA damage repair or cell cycle control were exposed to compounds and growth inhibition was measured relative to vehicle treated controls. The strain used in this assay is sgs1 mgt1
The panel holds about 79,000 compounds, 15% with a hit somewhere; the sample as a whole holds those more often. The source made the active and inactive calls. No stated cut-off is given here; in the data, active means growth inhibition above about 70%; inactive means the rest.
API: response.call in active, inactive

*Q* Please indicate how the test categorized CCOC(=O)C1CC1c1c(C)c2cc3[nH]c(cc4nc(cc5nc(cc1[nH]2)C(C)=C5CCC(=O)OC)C(CCC(=O)OC)=C4C)c(C)c3C1CC1C(=O)OCC (configuration not stated) .
*A* inactive

*Q* Could you please tell me the result logged for C[N+](C)(C)CC(=O)N/N=C(\Cc1nc2ccc([N+](=O)[O-])cc2[nH]c1=O)C(=O)Nc1nc2ccc([N+](=O)[O-])cc2s1 in this assay?
*A* inactive

*Q* Call for entry C/C=N/Nc1ccccc1 :
*A* inactive

*Q* Identify the outcome logged in this assay for the molecule shown: COC(=O)C(CC(=O)Nc1ccc(Cl)c(Cl)c1)C(=O)C(=O)Nc1ccc(Cl)c(Cl)c1 (configuration not stated)
*A* inactive

*Q* State the result this test recorded for CC1=CCCCC1 .
*A* inactive

Next:
*Q* Call for entry NS(=O)(=O)c1ccc(NC(=O)Nc2ccccc2)cc1 :
*A* inactive

*Q* In this assay, the call recorded for CN(C)c1ccc(/C=N/NC(=O)c2ccccc2NC(=O)C2CC2)cc1 was what?
*A* inactive

*Q* What was the test verdict on O=S1(=O)OCCOS(=O)(=O)C1S(=O)(=O)c1ccc2ccccc2c1 ?
*A* inactive

*Q* Returns: the outcome recorded for COc1ccc(CSC(=S)Nc2cc(C)c(C)cc2Br)cc1 in this assay.
*A* active

*Q* Could you check what this test reported for C/C(=N\NC(N)=S)c1sc(-n2nc(-c3ccccc3)cc2-c2ccccc2)nc1C ?
*A* inactive

* * *

# growth inhibition per entry
test: NCI Yeast Anticancer Drug Screen. Data for the mec2-1 strain (AID 157); conditions: S. cerevisiae mec2-1 strain, at 50.0 µM, active compounds read high
This is part of a sample that, as a whole, favours compounds with a hit. Of some 79,000 tested, about 15% had one in any assay.
The answer is to be given in %; state only the numeric part.

*Q* Can you look up the measured growth inhibition of NC(=O)SCC(=O)Nc1ccc2cccc3c2c1CC3 for me?
*A* 60.3

*Q* Sample COc1cccc2cc(-n3nnc4ccccc43)c(=O)oc12 — what was its growth inhibition?
*A* 18.1

*Q* Recorded growth inhibition of c1ccc2c(c1)ccc1c3ccccc3ccc21 , please.
*A* 10.9

*Q* For the molecule shown here, N#Cc1ccc(S(=O)(=O)c2ccc(C#N)cc2)cc1 , give the reported growth inhibition.
*A* -17.6

*Q* Quick one: growth inhibition of Cc1cc(C(C)(C)CC(=O)O)cc(C)c1C ?
*A* 37.4

*Q* What does the record list as growth inhibition for OC1c2ccccc2-c2ccc(N(Cc3ccccc3)Cc3ccccc3)cc21 (stereo not given) ?
*A* 11.4

*Q* Need growth inhibition, item COc1ccc(C(=O)O[C@@H]2CCN3CC[C@H](C)[C@H]23)cc1
*A* -22.5

*Q* Given the entry C=CCn1ccc(=O)nc1SCc1ccccc1 , report its measured growth inhibition.
*A* -4.8

*Q* I'd like to know its growth inhibition. The molecule in question is O=C(Nc1ccn(CCI)c(=O)n1)c1ccccc1
*A* -37.4

*Q* What value of growth inhibition has been recorded for this entry: COc1ccc2c(c1CCl)C(=O)OC2
*A* -9.1

*Q* # lookup: growth inhibition of C/C=C(\C)C(=O)N1c2ccccc2CC1c1c(C)[nH]c2ccccc12 (stereo not given)
*A* 3.65

*Q* Requested read-out: growth inhibition. Entry: Nc1nc(SCCCc2ccccc2)c2[nH]cnc2n1
*A* -2.9

*Q* Quick one: growth inhibition of O=C1c2cccc3c([N+](=O)[O-])ccc(c23)C(=O)N1CCc1ccccn1 ?
*A* 19.2

*Q* Data request, read-out growth inhibition, for COC(=O)c1cncn1C1CC1
*A* -7.1

*Q* Please give the measured growth inhibition for this molecule: O=C1C(c2ccccc2)=C(c2ccccc2)C(c2ccc(Sc3ccc(C4=C(c5ccccc5)C(=O)C(c5ccccc5)=C4c4ccccc4)cc3)cc2)=C1c1ccccc1
*A* 22.6

*Q* What growth inhibition value was documented for this molecule, Clc1ccc(Cl)c(NNc2cc(Cl)ccc2Cl)c1 ?
*A* -45.5

*Q* Can you look up the measured growth inhibition of C/C(Nc1ccc(F)cc1)=C1/CCOC1=O for me?
*A* -17.9

*Q* So what does the record say about growth inhibition for O=C(Cc1cccc2c(=O)cc(-c3ccccc3)oc12)OCCN1CCOCC1 ?
*A* 31.4

*Q* Form field: reported growth inhibition of Cc1cc2c(CC(=O)O)[nH]nc2c(C(=O)O)c1C
*A* -10.4

* * *

experiment: NCI Yeast Anticancer Drug Screen. Data for the mlh1 rad18 strain (AID 175); details: S. cerevisiae mlh1 rad18 strain growth inhibition; at 50.0 µM; active compounds read high
About 79,000 compounds went through this panel and 15% of them were active in at least one assay; those are over-represented in the sample as a whole.
value-type: growth inhibition (%)
Just the number please, in %, no unit attached.

*Q* So what's the measured growth inhibition for this one? O=c1[nH]c2cc([N+](=O)[O-])ccc2nc1/C(=N/Nc1ccccc1)C(O)c1ccc(Cl)cc1Cl (configuration not stated)
*A* 34.7

*Q* Reported growth inhibition for Fc1ccccc1C(Nc1nc2ccccc2s1)Nc1nc2ccccc2s1 : what is it?
*A* 1.35

*Q* Request the reported growth inhibition associated with C/C=C/C(=O)OCCC[N+](C)(C)C
*A* -23.8

*Q* Look up growth inhibition: C/C(CCc1cccc([N+](=O)[O-])c1)=N\NC(N)=O
*A* -29.5

*Q* Entry O=C(O)c1cccc(C#Cc2ccccc2)c1 : reported growth inhibition = ?
*A* 25.1

*Q* // lookup growth inhibition for CCCCCCNC1=C(OC)C(=O)C(NCCCCCC)=C(OC)C1=O
*A* -13.6

*Q* For the molecule shown here, OC1CCCN(CCNN2CCCC2)C1 (configuration not stated) , give the reported growth inhibition.
*A* 15.3
